Value source: PubChem BioAssay AID248

# System: L1210 leukemia ip in BDF1 mice, survival T/C
# assay_overview: NCI In Vivo Anticancer Drug Screen. Data for tumor model L1210 Leukemia (intraperitoneal) in B6D2F1 (BDF1) mice
# condition_description: endpoint: mean survival time; dose: 50.0 mg/kg/injection; schedule: Q01DX Z (ip); vehicle: carboxymethylcellulose (CMC); higher = longer survival
Toxic doses and inconclusive results are not listed.
Would you mind telling me the reported T/C of each entry?

What measured T/C is associated with "CNS(=O)(=O)c1ncnc2nc[nH]c12" on L1210 leukemia ip in BDF1 mice, survival T/C?
121 % of control

Now consider "O=C(O)c1ccc(-c2ccccc2)cc1" .
92 % of control

Now consider "Cc1nc(N)[nH]c(=O)c1CCCOc1ccccc1" .
95 % of control

Now consider "O=C(NO)Nc1ccccc1" .
94 % of control

---

Would you mind telling me the reported T/C of each entry?
# Tested on: L1210 leukemia ip in BDF1 mice, survival T/C
# assay_overview: NCI In Vivo Anticancer Drug Screen. Data for tumor model L1210 Leukemia (intraperitoneal) in B6D2F1 (BDF1) mice
# condition_description: endpoint: mean survival time; dose: 400.0 mg/kg/injection; schedule: Q04DX003 (ip); vehicle: Klucel (hydroxypropylcellulose) (HPC); higher = longer survival
Inconclusive results and toxic doses are left out.

Fill in: T/C of "O=[N+]([O-])c1cccc(S(=O)(=O)NNc2c(Cl)cc(Cl)cc2Cl)c1" is ___
96 % of control

Now consider "O=C1/C(=C/c2c(Cl)cccc2Cl)CCC/C1=C\c1c(Cl)cccc1Cl" .
101 % of control

Now consider "Cc1c(Cl)cccc1NC(=O)Nc1ccccc1Cl" .
92 % of control

Now consider "CCOC(=O)NC(C(N)=O)C(N)=O" .
106 % of control

Now consider CC(=O)C1CCC=C2C1CC1CC2C1(C)C (configuration not stated) .
90 % of control

Now consider "CCC/C=C/C(C)C" .
101 % of control

Now consider CC(=O)OC(C)C(=O)C(Cl)(Cl)Cl (configuration not stated) .
101 % of control

Now consider "Cc1cc([N+](=O)[O-])ccc1NC(=O)Nc1cccc(F)c1" .
95 % of control

Now consider "Cc1ccc(C)c(NC(=O)c2ccccc2C(=O)O)c1" .
98 % of control

Now consider COc1ccc(C(=O)N/N=C/C(CC(O)CO)=N/NC(=O)c2ccc(OC)cc2)cc1 (configuration not stated) .
96 % of control

Now consider CC1CC2NC(C)CC3NC(C)CC(N1)N32 (configuration not stated) .
111 % of control

Now consider Cc1ccc(C(CCC#N)OC(C)C)cc1 (configuration not stated) .
92 % of control

---

# System: L1210 leukemia ip in BDF1 mice, survival T/C
# assay_overview: NCI In Vivo Anticancer Drug Screen. Data for tumor model L1210 Leukemia (intraperitoneal) in B6D2F1 (BDF1) mice
# condition_description: endpoint: mean survival time; dose: 200.0 mg/kg/injection; schedule: Q01DX001 (ip); vehicle: saline; higher = longer survival
Toxic doses and inconclusive results are not listed.
Would you mind telling me the reported T/C of each entry?

Fill in: T/C of "COc1ccc2nc(N=Nc3c(N)nc(N)nc3N)sc2c1" is ___
105 % of control

Now consider "Cn1ncc2[nH]c(=O)n(O)c(=O)c21" .
100 % of control

Now consider C=COC(=O)CCCCCCC (tested in a mixture with another compound) .
94 % of control

Now consider "NC(=S)N/N=C/c1cc(=O)[nH]c(=O)[nH]1" .
98 % of control

Now consider COC(=O)c1cccc2c1C(Br)C(Br)c1ccccc1-2 (configuration not stated) .
98 % of control

Now consider O=C(NC1CCC(C(=O)O)CC1)OCc1ccccc1 (configuration not stated) .
102 % of control

Now consider "NC(=O)CN(CC(N)=O)CC(N)=O" .
98 % of control

Now consider "COC(=O)/C=C(\C)Nc1ccc(Cc2ccc(N/C(C)=C/C(=O)OC)cc2)cc1" .
86 % of control

Now consider "O=C(O)c1ccccc1C(=O)c1ccc(F)cc1" .
102 % of control

Now consider "CNS(=O)(=O)c1ccccc1C(=O)c1ccccc1" .
97 % of control

Now consider Nc1ncnc2c1ncn2C1OCC(O)C1CO (configuration not stated) .
105 % of control

Now consider "O=C(CCCC(=O)NNC(=O)Nc1ccc(Br)cc1)NNC(=O)Nc1ccc(Br)cc1" .
96 % of control
